I'd be grateful if you could share measured cell viability for these entries.
Test system: MOLM1 and UCSD/AML1 (averaged)
procedure.text: cell viability relative to DMSO control (POC); higher = less growth inhibition
experimental.context: 1 µM; 72 h
Among all 3,000 compounds or so, about 45 (2%) showed an effect of 50% or more. Only a selection was taken, and strong results are over-represented in it overall.
Please respond with the number in % and leave the unit unwritten.

So for COc1ccc(/C=C2\CCc3ccccc3C2=O)cc1 , the logged cell viability turned out to be 94

So for N#CC1=C(N)Oc2cc(O)ccc2C1c1ccccc1F (configuration not stated) , the logged cell viability turned out to be 13.8

So for COc1ccc(Nc2nc(N)c(C(=O)c3ccc(OC)c(OC)c3)s2)cc1 , the logged cell viability turned out to be 15.4

So for Cc1cc(C)c(NC(=O)Cn2c(=O)cc(C(=O)N3CCCCC3)c3ccccc32)c(C)c1 , the logged cell viability turned out to be 99.4

So for COC(=O)C1=C(C)NC(SCC(=O)c2ccc3c(c2)OCO3)=C(C#N)C1c1cccs1 (configuration not stated) , the logged cell viability turned out to be 95.7

So for Cc1ccc(N2C3=C(C(=O)CC(C)(C)C3)C(c3ccc(O)cc3)C3=C2CC(C)(C)CC3=O)cc1 , the logged cell viability turned out to be 89.8

So for COc1ccc(C(=O)c2sc(Nc3cccc(F)c3)nc2N)cc1OC , the logged cell viability turned out to be 96.9

So for COc1ccc(/C=C2\Oc3ccc(Br)cc3C2=O)cc1 , the logged cell viability turned out to be 97.7

So for Cc1ccc2c(CN3CCN(Cc4ccc(Br)cc4F)CC3)cc(=O)oc2c1 , the logged cell viability turned out to be 100

So for Cn1c(SCc2ccc(Cl)cc2)nc2c(=O)[nH]cnc21 , the logged cell viability turned out to be 90

So for N#CC1=C(N)Oc2[nH]c(=O)[nH]c(=O)c2C1c1ccccc1F (configuration not stated) , the logged cell viability turned out to be 94.3

So for CCC1C/C(=C\c2ccc(OC)cc2)C(=O)/C(=C/c2ccc(OC)cc2)C1 (configuration not stated) , the logged cell viability turned out to be 12.8

----------
I'd be grateful if you could share measured cell viability for these entries.
Test system: MOLM1 and UCSD/AML1 (averaged)
procedure.text: cell viability relative to DMSO control (POC); higher = less growth inhibition
experimental.context: 1 µM; 72 h
Among all 3,000 compounds or so, about 45 (2%) showed an effect of 50% or more. Only a selection was taken, and strong results are over-represented in it overall.
Please respond with the number in % and leave the unit unwritten.

So for CC(C)c1ccc(NC(=O)Cn2c(=O)cc(C(=O)N3CCc4ccccc4C3)c3ccccc32)cc1 , the logged cell viability turned out to be 97.1

So for Cc1ccc2occ(C)c(=O)c2c1 , the logged cell viability turned out to be 98.5

So for Cc1ccc(C)c(-c2nc(CSc3nc4c(=O)[nH]cnc4n3C)c(C)o2)c1 , the logged cell viability turned out to be 103
